Test system: NCI-H522 lung
assay notes: NCI-60 one-dose screen, 48 h
experimental context: 10 µM unless noted
About 83,000 compounds went through this panel and 20% of them were active in at least one assay; those are over-represented in the sample as a whole. Active and inactive are the calls of the source. How the source made its calls: active means growth percent below 10; inactive means the rest.
The reply should name one outcome from active, inactive

1. Cc1c(C(=O)NCCN2CCOCC2)cn2ncnc(Oc3ccc(NC(=O)Nc4ccc(Cl)c(C(F)(F)F)c4)cc3)c12 | active

Which result was noted for this molecule in the test: NCCCNc1nc2ccc(Cl)cc2c2c(=O)c3cc(F)ccc3sc12
inactive

Which result was noted for this molecule in the test: CCCCOc1nc2ccc(OC)cc2cc1-c1cc(-c2ccc(Cl)cc2)nc(-c2ccc(Cl)cc2)c1
inactive

Which result was noted for this molecule in the test: O=C(/C=C/c1ccc([N+](=O)[O-])o1)NNC(=O)c1cc2ccccc2cc1O
active

Which result was noted for this molecule in the test: CCOC(=O)c1[nH]c(C)c(C(=O)OCc2ccccc2C#N)c1C
inactive

Which result was noted for this molecule in the test: CN(C)CCCNc1nc2ccccc2c2c(=O)c3cc(F)ccc3sc12
inactive

Which result was noted for this molecule in the test: COc1cc2cc(Oc3ccc(NC(=O)Nc4ccc(F)c(C(F)(F)F)c4)cc3)c(C)nc2cc1OCCN1CCOCC1
inactive
